Cited source for all entries: paper PMC4140764

- PROTOCOL_SUMMARY: in vitro
- COND: human
This listing pairs molecules with measured CC50.

- MOLECULE: "Cc1ccc(NC(=O)Nc2cc(NC(=O)c3ccc(F)cc3)ccc2N2CCCC2)c(Cl)c1"
  CC50: "51.3 µM"
- MOLECULE: "COc1ccc(CN2C(=O)C(=O)c3cc(C)ccc32)cc1"
  CC50: "98 µM"
- MOLECULE: "CC1(C(=O)NCc2ccccc2)Cn2c(cc3occc32)C(=O)N1Cc1ccc(Cl)cc1 (stereo not drawn)"
  CC50: "111 µM"

###

- System: VEEV (1CSH3)
- PROTOCOL_SUMMARY: microbe, parasite or virus in culture
- Assay type: cell-based, Venezuelan equine encephalomyelitis virus
- COND: Venezuelan equine encephalitis virus, HeLa, 20 h
EC50 strictly less than 40 µM = yes. Otherwise no.

- COMPOUND: "Cc1ccc(NC(=O)Nc2cc(NC(=O)c3ccc(F)cc3)ccc2N2CCCC2)c(Cl)c1 [F694-1532]"
  ASSAY_TARGET: "VEEV (1CSH3)"
  GROUP: "yes"
- COMPOUND: "COc1ccccc1CNC(=O)C1c2c(n(C)c3ccccc23)SCC(=O)N1c1ccc(OC)c(OC)c1 (centres unmarked) [G202-0362]"
  ASSAY_TARGET: "VEEV (1CSH3)"
  GROUP: "no"
- COMPOUND: "CC1(C(=O)NCc2ccccc2)Cn2c(cc3occc32)C(=O)N1Cc1ccc(Cl)cc1 (centres unmarked) [C795-0925]"
  ASSAY_TARGET: "VEEV (1CSH3)"
  GROUP: "yes"
- COMPOUND: "NC(=O)c1ncn([C@@H]2O[C@H](CO)[C@@H](O)[C@H]2O)n1 [Ribavirin, ribavirin, reference compound]"
  ASSAY_TARGET: "VEEV (1CSH3)"
  GROUP: "no"
- COMPOUND: "COc1ccc(CN2C(=O)C(=O)c3cc(C)ccc32)cc1 [D011-2120]"
  ASSAY_TARGET: "VEEV (1CSH3)"
  GROUP: "no"
